Field: inhibition at 3.3 µM. Provide a value for each of the compounds that follow.
# system_name: HIV-1 protease (Human immunodeficiency virus type 1 group M subtype B, UniProt P04585)
# Construct: The protease (or proteinase), consisting of only 99 amino acids, is among the smallest enzymes known
# experiment_notes: In vitro HIV protease inhibitory assay (HIV Protease FITC Assay)
# Assay type: biochemical
# conditions: HIV-1 Dose 3.300 uM; read-out: HIV-1 Protease % Inhib
Numbers only, in %.

Answered examples (5):
> print(dat)
                                   compound    parameter.measured  measured.value
1  O=c1oc(CC(O)c2ccsc2)cc(O)c1C(c1ccccc1)C1CC1 (centres unmarked)  inhibition at 3.3 µM              69
2  O=c1oc(CC(O)c2ccc(F)cc2)cc(O)c1C(c1ccccc1)C1CC1 (centres unmarked)  inhibition at 3.3 µM            80.3
3  CCC(Cc1ccccc1)c1cc(O)c(C(c2cccc(NC(=O)Cc3cccnc3)c2)C2CC2)c(=O)o1 (centres unmarked)  inhibition at 3.3 µM            86.5
4  CCC(Cc1ccccc1)c1cc(O)c(C(c2cccc(NC(=O)Nc3ccccc3)c2)C2CC2)c(=O)o1 (centres unmarked)  inhibition at 3.3 µM            43.2
5  O=c1oc(CC(O)c2ccccc2Cl)cc(O)c1C(c1ccccc1)C1CC1 (centres unmarked)  inhibition at 3.3 µM            39.8

Alright, here's another compound for you.
Query: Item CCC(Cc1ccccc1)c1cc(O)c(C(c2cccc(NS(=O)(=O)c3ccc(C#N)cc3)c2)C2CC2)c(=O)o1 (centres unmarked) has what recorded inhibition at 3.3 µM?
Reply: 99
